# System: MALME-3M melanoma
# protocol_summary: NCI-60 one-dose screen, 48 h
# condition: 10 µM unless noted
The panel holds about 83,000 compounds, 20% with a hit somewhere; the sample as a whole holds those more often. Calls of active or inactive are those of the source. The calls were made as follows: active = growth percent below 10; inactive = the rest.
Classes used: y for active, n for inactive

{"compound": "O=c1[nH][n+](-c2ccc(Br)cc2)no1", "assigned_category": "n"}
{"compound": "Cc1cc(=O)[nH]c(=O)n1Cc1cn(-c2c3ccccc3nc3ccccc23)nn1", "assigned_category": "n"}
{"compound": "Cc1ccc(-c2nc(SCC(=O)Nc3nc(-c4ccc(Cl)cc4)cs3)[nH]c(=O)c2C#N)cc1", "assigned_category": "n"}
{"compound": "N[C@@H](Cc1ccccc1)[C@@H](O)C(=O)NCc1ccc(F)cc1", "assigned_category": "n"}
{"compound": "O=C(CCCCCCSc1nc(-c2ccccc2)cc(-c2ccccc2)n1)NO", "assigned_category": "n"}
{"compound": "C#Cc1cccc(NC(=O)c2ccc(NC(=O)C=C)cc2)c1", "assigned_category": "n"}
{"compound": "O=C1c2cccc3cccc(c23)C(=O)N1Nc1nc(NC2CCCCC2)nc(N2CCOCC2)n1", "assigned_category": "n"}
{"compound": "COc1ccc(-c2nc(NN)c3c(C)nn(-c4ccc(F)cc4)c3n2)cc1", "assigned_category": "n"}
{"compound": "O=C1CCC(C(=O)NCCNCCNC(=O)C2CCC(=O)N2)N1 (stereo not given)", "assigned_category": "n"}
{"compound": "CCC(=O)Nc1ccc(-c2nc(-c3cccc(OC)c3)c(-c3ccnc(Br)c3)[nH]2)cc1", "assigned_category": "n"}
{"compound": "O=CN1N=C(c2ccc(Nc3ccnc4cc(Cl)ccc34)cc2)CC1c1ccccc1 (stereo not given)", "assigned_category": "n"}
{"compound": "O=[N+]([O-])c1ccc(Oc2nc(Nc3ccc(O[C@H]4CO[C@H]5[C@@H]4OC[C@@H]5O)c(Cl)c3)ncc2F)c(Cl)c1", "assigned_category": "n"}
{"compound": "C=CCc1cc(C)ccc1NC(C(=O)NCC(=O)OC)c1ccccc1 (stereo not given)", "assigned_category": "n"}
{"compound": "CNCCCNc1nc2ccccc2c2c(=O)c3cc(F)ccc3sc12", "assigned_category": "n"}
{"compound": "O=C(Cc1ccc(F)c(Cl)c1)Nc1cc(C2(C(F)(F)F)CC2)nn1CC1CCCCC1", "assigned_category": "y"}
{"compound": "COc1cccc(-c2nc(-c3ccc(NS(=O)(=O)c4ccccc4)cc3)[nH]c2-c2ccnc(Br)c2)c1", "assigned_category": "n"}
{"compound": "CCN(CC)CCNc1nc2ccccc2c2c(=O)c3cc(Cl)ccc3sc12", "assigned_category": "n"}
{"compound": "CCCCCCCCCCCCCCCCCCOc1ccccc1CCCOP(=O)(O)OCC[N+](C)(C)C", "assigned_category": "n"}
{"compound": "CCCCCCCNC(=O)CCCNc1ncnc2c1ncn2-c1cccc(C(C)O)c1 (stereo not given)", "assigned_category": "n"}
{"compound": "N#Cc1c(-c2ccc(Cl)cc2)nc(NCCO)[nH]c1=O", "assigned_category": "n"}
{"compound": "CCOC(=O)C1=C(N)Oc2c(sc3c(C)cccc23)C1c1ccc(OC)cc1 (stereo not given)", "assigned_category": "n"}
{"compound": "Cc1c(C(=O)/C=C/Nc2c(Cl)cc(S(N)(=O)=O)cc2Cl)sc2nc3ccccc3n12", "assigned_category": "n"}
{"compound": "COc1ccc2c(c1)nc(NNC(=O)c1cnccn1)c1cccn12", "assigned_category": "n"}
{"compound": "CCN(CC)S(=O)(=O)c1ccc(NC(=O)CSc2nnc(C)n2-c2ccccc2)cc1", "assigned_category": "n"}
{"compound": "O=c1c2cc(F)cc(Cl)c2sc2c(NCCCNCCO)nc3ccccc3c12", "assigned_category": "n"}
{"compound": "CN(C)c1ccc2nc3ccc(=[N+](C)C)c([N+](=O)[O-])c-3sc2c1", "assigned_category": "y"}
{"compound": "Cc1nn(-c2ccccc2)c(-n2ccnc2)c1/C=N/Nc1nc(-c2ccc(Cl)c(Cl)c2)cs1", "assigned_category": "n"}
{"compound": "c1ccc2cc(C[n+]3ccn(CCCCCCn4cc[n+](Cc5ccc6ccccc6c5)c4)c3)ccc2c1", "assigned_category": "n"}
{"compound": "CCCCn1c(-c2ccc(-c3nc(-c4ccc(Cl)cc4)no3)cc2)nc(-c2ccccc2)c1-c1ccccc1", "assigned_category": "n"}
{"compound": "COc1ccc(C(=O)n2nc(-c3ccccc3)nc2N)cc1OC", "assigned_category": "n"}
{"compound": "COc1cccc(OC)c1C(=O)N[C@@H]1C(=O)N2[C@@H]1SC(C)(C)[C@@H]2C(=O)O", "assigned_category": "n"}
{"compound": "CCOC(=O)CCN(C(=O)Nc1ccccc1)C1CCCCC1", "assigned_category": "n"}
{"compound": "CC(=O)N1N=C(c2ccc(Nc3nc(Nc4ccc(F)cc4)nc(Nc4ccc(Cl)cc4)n3)cc2)CC1c1ccc(Cl)cc1 (stereo not given)", "assigned_category": "n"}
{"compound": "Cn1cc(-c2cc3ncnc(Nc4ccc(CC(=O)Nc5cc(C(C)(C)C)on5)cc4)c3s2)cn1", "assigned_category": "n"}
{"compound": "CC(=O)OC[C@H]1OC(Sc2sc(C(=O)c3ccc(C)cc3)c(N)c2-c2nc3ccccc3s2)[C@H](OC(C)=O)[C@@H](OC(C)=O)[C@@H]1OC(C)=O (stereo not given in full)", "assigned_category": "n"}
{"compound": "COc1cc(/C=C/c2ccccc2)cc(OC)c1", "assigned_category": "n"}
{"compound": "CCS(=O)(=O)c1ncnc2nc[nH]c12", "assigned_category": "n"}
{"compound": "COc1cccc(-c2nn(-c3ccccc3)cc2-c2ccnc(N3CCOCC3)c2)c1", "assigned_category": "n"}
{"compound": "COc1ccc(-c2cc(-c3ccc(Cl)cc3)c(C#N)c(=O)n2CCCCCC(=O)Nc2ccccc2N)cc1", "assigned_category": "n"}
{"compound": "COc1ccc(-c2[nH]ncc2-c2cc3c(c(OC)c2)OCC(=O)N3)cc1", "assigned_category": "n"}

====

# Tested on: HS 578T breast
# protocol_summary: NCI-60 one-dose screen, 48 h
# condition: 10 µM unless noted
The panel holds about 83,000 compounds, 20% with a hit somewhere; the sample as a whole holds those more often. Calls of active or inactive are those of the source. Rule for the calls: active = growth percent below 10; inactive = the rest.
Classes used: active, inactive

{"compound": "Clc1ccc(C(/C=C/c2sc(Cl)nc2Cl)=N/Nc2cc(Cl)cc(Cl)c2)cc1", "assigned_category": "inactive"}
{"compound": "Cc1cccc(OCC(O)CN2CCN(c3ccc(Cl)cc3)CC2)c1 (stereo not given)", "assigned_category": "inactive"}
{"compound": "CCOc1c(B(O)O)cccc1-c1nc2ccc3[nH]ncc3c2c2c1CCCC2", "assigned_category": "inactive"}
{"compound": "C#Cc1cccc(NC(=O)c2ccc(NC(=O)C=C)cc2)c1", "assigned_category": "inactive"}
{"compound": "CC(C)OC(=O)Nc1ccc(-c2nc(-c3cccc(OCCN4CCOCC4)c3)c(-c3ccnc(Br)c3)[nH]2)cc1", "assigned_category": "active"}
{"compound": "O=C(S)CNC(=O)c1ccccc1", "assigned_category": "inactive"}
{"compound": "COc1ccc(C2CC(c3ccc(Nc4nc(Nc5ccc(F)cc5)nc(Nc5ccc(Cl)cc5)n4)cc3)=NN2C(C)=O)cc1 (stereo not given)", "assigned_category": "inactive"}
{"compound": "NC(=O)Nc1ccc2ncnc(Nc3ccc(Cl)cc3)c2c1", "assigned_category": "inactive"}
{"compound": "CCCCCCn1c(-c2ccc(C(=O)O/N=C(\\N)c3ccc4c(c3)OCO4)cc2)nc(-c2ccccc2)c1-c1ccccc1", "assigned_category": "active"}
{"compound": "CC(C)n1cnc2c(Nc3cccc(Cl)c3)nc(N[C@H]3CCCC[C@@H]3N)nc21", "assigned_category": "inactive"}

====

# Test system: ACHN renal
# protocol_summary: NCI-60 one-dose screen, 48 h (100 = growth as untreated, 0 = no growth, -100 = all killed)
# condition: 10 µM unless noted
This is part of a sample that, as a whole, favours compounds with a hit. Of some 83,000 tested, about 20% had one in any assay.

{"compound": "Nc1ccccc1-c1cc2c(c3c1[nH]c1ccccc13)CCCCC2", "growth (%)": 107}
{"compound": "Oc1c(I)cc(I)cc1CNCCCN(Cc1ccccn1)Cc1ccccn1", "growth (%)": -100}
{"compound": "CN1C(=C2C(=O)OC(C)(C)OC2=O)CCC1C(=O)NCc1ccc(Cl)cc1Cl (stereo not given)", "growth (%)": 97}
{"compound": "N#Cc1c(-c2ccccc2)nc(SCC(=O)Nc2nc(-c3ccc(Cl)cc3)cs2)[nH]c1=O", "growth (%)": 103}
{"compound": "O=c1ccc(N=Nc2ccccc2)ccc1Cl", "growth (%)": 75.9}
{"compound": "CN1C(=O)CNC(=O)[C@H](NC(=O)c2nc3ccccc3cc2O)CSSC[C@H]1C(=O)NCCc1nc2ccccc2cc1O", "growth (%)": 78.6}
{"compound": "COc1ccccc1/C=C1\\Oc2cc(OCCN3CCC(Cc4ccccc4)CC3)ccc2C1=O", "growth (%)": 105}
{"compound": "BrCCCc1n(Cc2ccc3ccccc3c2)c2ccccc2[n+]1Cc1ccc2ccccc2c1", "growth (%)": 5.29}
{"compound": "COc1ccc(C(=O)n2nc(-c3ccccc3)nc2N)cc1OC", "growth (%)": 82.4}
{"compound": "Cc1cccc(NCc2cn(-c3ccc(C(=O)O)cc3)nc2-c2ccc(C(=O)O)cc2)n1", "growth (%)": 103}

Sourced from PubChem BioAssay (NCI)
